biological target: EGFR LRCS (BaF3-LRCS cell line) (Homo sapiens, UniProt P00533, C797S/L858R); assay: HTRF Phospho EGFR LRCS assay (cellular); conditions: BaF3-LRCS cells, 4 hours incubation with compound, Phospho-EGFR HTRF readout
Sequence (P00533 25-1210 C797S/L858R): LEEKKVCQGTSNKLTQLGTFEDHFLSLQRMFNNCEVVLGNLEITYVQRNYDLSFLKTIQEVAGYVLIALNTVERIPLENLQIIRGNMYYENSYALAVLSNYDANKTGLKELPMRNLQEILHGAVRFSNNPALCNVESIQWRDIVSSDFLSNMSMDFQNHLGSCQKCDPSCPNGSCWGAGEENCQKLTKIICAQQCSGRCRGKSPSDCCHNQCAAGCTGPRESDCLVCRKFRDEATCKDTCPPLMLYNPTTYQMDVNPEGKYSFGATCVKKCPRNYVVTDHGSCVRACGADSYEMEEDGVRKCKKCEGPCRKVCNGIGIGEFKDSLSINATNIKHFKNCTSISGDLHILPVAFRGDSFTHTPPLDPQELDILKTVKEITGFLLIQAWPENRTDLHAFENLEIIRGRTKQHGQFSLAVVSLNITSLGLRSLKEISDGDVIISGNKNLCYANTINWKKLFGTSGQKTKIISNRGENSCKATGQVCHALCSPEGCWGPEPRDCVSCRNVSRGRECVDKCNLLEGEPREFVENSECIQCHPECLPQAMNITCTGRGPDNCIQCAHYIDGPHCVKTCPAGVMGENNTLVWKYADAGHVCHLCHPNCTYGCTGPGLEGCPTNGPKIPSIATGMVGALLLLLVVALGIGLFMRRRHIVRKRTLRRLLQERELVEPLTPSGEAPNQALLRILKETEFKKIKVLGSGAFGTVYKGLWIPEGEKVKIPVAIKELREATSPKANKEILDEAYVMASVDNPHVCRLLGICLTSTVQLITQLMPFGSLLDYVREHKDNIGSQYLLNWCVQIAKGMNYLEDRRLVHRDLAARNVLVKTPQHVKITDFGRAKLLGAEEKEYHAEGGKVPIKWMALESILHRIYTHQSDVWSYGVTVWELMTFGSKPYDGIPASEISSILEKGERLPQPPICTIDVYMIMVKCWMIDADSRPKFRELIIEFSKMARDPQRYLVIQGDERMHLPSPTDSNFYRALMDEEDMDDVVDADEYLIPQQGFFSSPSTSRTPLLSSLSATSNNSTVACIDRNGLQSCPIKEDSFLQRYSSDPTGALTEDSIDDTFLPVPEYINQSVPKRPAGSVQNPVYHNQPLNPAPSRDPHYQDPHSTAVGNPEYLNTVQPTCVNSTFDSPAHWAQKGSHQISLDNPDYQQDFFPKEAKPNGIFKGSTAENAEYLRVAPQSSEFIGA
pIC50: −log10 of the molar value.
Test Readout: pIC50

Ask | Entry Cc1c(-c2ccc(N3CCN(CCO)CC3)cc2)cc(C(F)F)c2cn(C(C(=O)Nc3nccs3)c3ncn4c3C[C@@H](F)C4)nc12 (stereo partly shown) has what pIC50?
Reply | 7.92

Ask | Entry Cc1c(-c2ccc(N3CCOCC3)cc2)cc(C(F)F)c2cn(C(C(=O)Nc3nccs3)c3ncn4c3CCC4)nc12 (stereo not shown) has what pIC50?
Reply | 7.77

Ask | Entry Cc1c(-c2ccc(N3C[C@H]4CN(CC(C)F)C[C@H]4C3)cc2)cc(C(F)F)c2cn(C(C(=O)Nc3nccs3)c3ncn4c3C[C@@H](F)C4)nc12 (stereo partly shown) has what pIC50?
Reply | 7.55

a: Cc1c(-c2ccc(N3CCOCC3)nc2)cc(C(F)F)c2cn(C(C(=O)Nc3nccs3)c3ncn4c3C[C@@H](F)C4)nc12 (stereo partly shown)
b: Cc1c(-c2ccc(OCCN3CCC(CO)CC3)cc2)cc(C(F)F)c2cn(C(C(=O)Nc3nccs3)c3ncn4c3C[C@@H](F)C4)nc12 (stereo partly shown)
c: Cc1c(-c2ccc(CN(C)C3CCC(O)CC3)cc2)cc(C(F)F)c2cn(C(C(=O)Nc3nccs3)c3ncn4c3C[C@@H](F)C4)nc12 (stereo partly shown)
Ask | Sort entries by pIC50 from minimum to maximum value. Note for the reader: the ranking is given by listing the labels in the order requested.
Reply | c, b, a

I: Cc1c(-c2ccc(CN3CCC(CO)CC3)cc2)cc(C(F)F)c2cn(C(C(=O)Nc3nccs3)c3ncn4c3C[C@@H](F)C4)nc12 (stereo partly shown)
II: Cc1c(-c2ccc(OCCN3CCOCC3)cc2)cc(C(F)F)c2cn(C(C(=O)Nc3nccs3)c3ncn4c3C[C@@H](F)C4)nc12 (stereo partly shown)
Ask | // pick min by pIC50: I , II Lab log: write the label of the selected item as the result.
Reply | II

---

biological target: EGFR LRCS (BaF3-LRCS cell line) (Homo sapiens, UniProt P00533, C797S/L858R); test: HTRF Phospho EGFR LRCS assay (cellular); conditions: BaF3-LRCS cells, 4 hours incubation with compound, Phospho-EGFR HTRF readout
Test Readout: IC50 (nM)

Ask | Entry CCN1CC[C@@H](c2ccc(-c3cc(C(F)F)c4cn(C(C(=O)Nc5nccs5)c5ncn6c5C[C@@H](F)C6)nc4c3C)cc2)[C@H](F)C1 (single isomer, unassigned) [Example 2] has what IC50?
Reply | 15

Ask | Entry Cc1c(-c2ccc(N3CC(CN4CCC(CO)CC4)C3)cc2)cc(C(F)F)c2cn(C(C(=O)Nc3nccs3)c3ncn4c3C[C@@H](F)C4)nc12 (stereo partly drawn) [Example 19] has what IC50?
Reply | 16

Ask | Entry Cc1c(-c2ccc(CN3CCC(C(C)O)CC3)cc2)cc(C(F)F)c2cn(C(C(=O)Nc3nccs3)c3ncn4c3C[C@@H](F)C4)nc12 (stereo partly drawn) [Example 12] has what IC50?
Reply | 18

---

molecular target: EGFR LRCS (BaF3-LRCS cell line) (Homo sapiens, UniProt P00533, C797S/L858R); experiment: HTRF Phospho EGFR LRCS assay (cellular); conditions: BaF3-LRCS cells, 4 hours incubation with compound, Phospho-EGFR HTRF readout
Where a name gives a salt, the structure may show the parent alone.
Test Readout: IC50 (nM)

Sample answers from the record:
Ask | Entry Cc1c(-c2ccc(OCCN3CCC(C(C)O)CC3)cc2)cc(C(F)F)c2cn(C(C(=O)Nc3nccs3)c3ncn4c3C[C@@H](F)C4)nc12 (stereo partly shown) has what IC50?
Reply | 30

Ask | Entry Cc1c(-c2ccc(CN3CCC(O)CC3)cc2)cc(C(F)F)c2cn(C(C(=O)Nc3nccs3)c3ncn4c3C[C@@H](F)C4)nc12 (stereo partly shown) has what IC50?
Reply | 14

Ask | Entry CNCCc1ccc(-c2cc(C(F)F)c3cn(C(C(=O)Nc4nccs4)c4ncn5c4C[C@@H](F)C5)nc3c2C)cc1 (stereo partly shown) [Example 3, Hydrochloride] has what IC50?
Reply | 18

Ask | Entry Cc1c(-c2ccc(N3CCOC(CN(C)C)C3)cc2)cc(C(F)F)c2cn(C(C(=O)Nc3nccs3)c3ncn4c3C[C@@H](F)C4)nc12 (stereo partly shown) has what IC50?
Reply | 78

Ask | Entry CCN1C[C@H]2CN(c3ccc(-c4cc(C(F)F)c5cn(C(C(=O)Nc6nccs6)c6ncn7c6C[C@@H](F)C7)nc5c4C)cc3)C[C@]2(F)C1 (stereo partly shown) has what IC50?
Reply | 29

A: Cc1c(-c2ccc(N3CCC(O)CC3)cc2)cc(C(F)F)c2cn(C(C(=O)Nc3nccs3)c3ncn4c3C[C@@H](F)C4)nc12 (stereo partly shown)
B: Cc1c(-c2ccc(C3CCN(CC(C)F)CC3)cc2)cc(C(F)F)c2cn(C(C(=O)Nc3nccs3)c3ncn4c3C[C@@H](F)C4)nc12 (stereo partly shown)
Ask | Response body: label of entry with the larger IC50; valid values A , B . Lab log: write the label of the selected item as the result.
Reply | B
(B: 21 nM, A: 10 nM)

P: Cc1c(-c2ccc(N3CCC(C)(O)CC3)cc2)cc(C(F)F)c2cn(C(C(=O)Nc3nccs3)c3ncn4c3C[C@@H](F)C4)nc12 (stereo partly shown)
Q: Cc1c(-c2ccc(N3CCOCC3)cc2)cc(C(F)F)c2cn(C(C(=O)Nc3nccs3)c3ncn4c3C[C@@H](F)C4)nc12 (stereo partly shown)
R: Cc1c(-c2ccc(OCCN3CCC(O)CC3)cc2)cc(C(F)F)c2cn(C(C(=O)Nc3nccs3)c3ncn4c3C[C@@H](F)C4)nc12 (stereo partly shown)
Ask | Rank descending by IC50. Note for the reader: the ranking is given by listing the labels in the order requested.
Reply | P, R, Q

---

target: EGFR LRCS (BaF3-LRCS cell line) (Homo sapiens, UniProt P00533, C797S/L858R); construct: host or cells: BaF3 (BaF3-LRCS engineered line, kept under puromycin); experiment: HTRF Phospho EGFR LRCS assay (cellular); type: cell-based; conditions: BaF3-LRCS cells, 4 hours incubation with compound, Phospho-EGFR HTRF readout
pIC50: −log10 of the molar value.
Test Readout: pIC50

Ask | Entry Cc1c(-c2ccc(N3CCN4CCC3C4)cc2)cc(C(F)F)c2cn(C(C(=O)Nc3nccs3)c3ncn4c3C[C@@H](F)C4)nc12 (some centres unmarked) has what pIC50?
Reply | 7.77

Ask | Entry Cc1c(-c2ccc(C3CC(CN4CCC(CO)CC4)C3)cc2)cc(C(F)F)c2cn(C(C(=O)Nc3nccs3)c3ncn4c3C[C@@H](F)C4)nc12 (some centres unmarked) has what pIC50?
Reply | 7.62

Ask | Entry Cc1c(-c2ccc(N3CCC(S(C)(=O)=O)CC3)cc2)cc(C(F)F)c2cn(C(C(=O)Nc3nccs3)c3ncn4c3C[C@@H](F)C4)nc12 (some centres unmarked) has what pIC50?
Reply | 7.80

Ask | Entry Cc1c(-c2ccc(CCN(C)C)cc2)cc(C(F)F)c2cn(C(C(=O)Nc3nccs3)c3ncn4c3C[C@@H](F)C4)nc12 (some centres unmarked) has what pIC50?
Reply | 7.96

Ask | Entry Cc1c(-c2ccc(CCN3CCC(C(C)O)CC3)cc2)cc(C(F)F)c2cn(C(C(=O)Nc3nccs3)c3ncn4c3C[C@@H](F)C4)nc12 (some centres unmarked) has what pIC50?
Reply | 7.80

---

target: EGFR LRCS (BaF3-LRCS cell line) (Homo sapiens, UniProt P00533, C797S/L858R); assay: HTRF Phospho EGFR LRCS assay (cellular); conditions: BaF3-LRCS cells, 4 hours incubation with compound, Phospho-EGFR HTRF readout
Test Readout: IC50 (µM)

Ask | Entry Cc1c(-c2ccc(CCN3CCC(CO)CC3)cc2)cc(C(F)F)c2cn(C(C(=O)Nc3nccs3)c3ncn4c3C[C@@H](F)C4)nc12 (stereo partly drawn) has what IC50?
Reply | 0.027

Ask | Entry Cc1c(-c2ccc(CCN3CCC(O)CC3)cc2)cc(C(F)F)c2cn(C(C(=O)Nc3nccs3)c3ncn4c3C[C@@H](F)C4)nc12 (stereo partly drawn) has what IC50?
Reply | 0.028

Ask | Entry Cc1c(-c2ccc(C3CC(CN4CCC(O)CC4)C3)cc2)cc(C(F)F)c2cn(C(C(=O)Nc3nccs3)c3ncn4c3C[C@@H](F)C4)nc12 (stereo partly drawn) has what IC50?
Reply | 0.03

From: patent US20240018154A1
